Attribution: ChEMBL document CHEMBL3433997

biological target: Glucose transporter (Leishmania mexicana); assay: ST_JUDE_LEISH: Cytotoxicity at 2uM final concentration against transgenic Leishmania Mexicana promastigotes LmGT2 that are glucose transport deficient and complemented with the L. Mexicana glucose transporter 2. Activity is measured by DNA content using SYBR green in vitro; assay type: functional

{"compound": "OC(CNCc1ccccc1OCc1ccccc1)c1cccc(I)c1 (stereo not given)", "unit-tag": "%", "inhibition": 0.61}
{"compound": "Cc1ccc(NC(=O)Nc2ccc(Cl)c(C(F)(F)F)c2)cc1-c1ccc(C(=O)NCCN2CCOCC2)cc1", "unit-tag": "%", "inhibition": 5.24}
{"compound": "O=C1CC(C(=O)O)CC(=O)N1", "unit-tag": "%", "inhibition": -0.61}
{"compound": "c1ccc2[nH]c(-c3ccc(-c4ccc(CN5CCN(CCN6CCOCC6)CC5)cc4)cc3)nc2c1", "unit-tag": "%", "inhibition": 4.36}
{"compound": "Cc1cc(C(F)(F)F)n2nc(C(=O)N(Cc3cncn3Cc3ccccc3F)CC3CC3)cc2n1", "unit-tag": "%", "inhibition": -0.18}
{"compound": "CN(C)CCCOc1ccccc1CN1CC[C@H](NC(=O)c2ccc(Cl)c(Cl)c2)C1", "unit-tag": "%", "inhibition": -2.05}
{"compound": "CCC(C)NS(=O)(=O)c1ccc2nc(Nc3cccc(SC)c3)n(C(C)C(C)C)c2c1 (stereo not given)", "unit-tag": "%", "inhibition": 3.8}
{"compound": "Cc1ccc(CON2C(=N)N=C(N)NC2(C)C)cc1C", "unit-tag": "%", "inhibition": 3.93}
{"compound": "CC(C)(C)C(C)(C)Cc1ccc(O)c(CN2CCN(c3ccccc3)CC2)c1", "unit-tag": "%", "inhibition": -0.38}
{"compound": "CC(C)NCc1cccc(-c2cccc(NC(=O)c3cccc(Cl)c3)c2)c1", "unit-tag": "%", "inhibition": 4.05}
